Listed below: ratio over background (IGF-1R) values for each entry.
Target: T1, Soluble IGF-1R (R&D Systems, Cat. # 391-GR/CF) (human, UniProt P08069 31-935)
T1 construct: extracellular domain; the precursor is cleaved into alpha and beta subunits; also called sIGF-1R
Assay: phage ELISA, receptor coated on plate; A405 over non-fat milk

BINDER: GHYFGSFYDAIDQLVAGMLPG (library tags and phage coat protein not included) [20E2A-3-A3-IGFR]
UNIT_STRING: fold over background
ratio over background (IGF-1R): 3
--
BINDER: GLDHSDAVGVHLGFAWPAQARGRWEAGGLEDTWAGYDWL (tags and coat protein not included; Formula 10 (Group 6) clone) [40F-4-B1-IGFR]
UNIT_STRING: fold over background
ratio over background (IGF-1R): 3
--
BINDER: RCGDEEGWQENRRDDPFYHKLSELFGGC (library tags and phage coat protein not included) [B6Hα-3-E5-IR]
UNIT_STRING: fold over background
ratio over background (IGF-1R): 2.9
--
BINDER: VRGFQGGTVWPGYEWLRNAA (tags and coat protein not included; Formula 10 (Group 6) clone) [R20β-4-E8-IR]
UNIT_STRING: fold over background
ratio over background (IGF-1R): 34.9
--
BINDER: QSGSGDFYDWLSRLIRGNGDG (library tags and phage coat protein not included) [20E2Bβ-3-C7-IR]
UNIT_STRING: fold over background
ratio over background (IGF-1R): 3.1
--
BINDER: SSETAKMVTGTRDDPFYHKLSELVQGS (library tags and phage coat protein not included) [B6Hα-2-D8-IR]
UNIT_STRING: fold over background
ratio over background (IGF-1R): 3
--
BINDER: CGAKMTGTPNDPFYHKLSELLQRG (library tags and phage coat protein not included) [B6Hα-3-E6-IR]
UNIT_STRING: fold over background
ratio over background (IGF-1R): 2.3
--
BINDER: AGSVTSFYDAMEQLVATGTSA (library tags and phage coat protein not included) [20E2A-3-A4-IGFR]
UNIT_STRING: fold over background
ratio over background (IGF-1R): 2.5
--
BINDER: AETSAQVGWQRLWSVWPGDHWSTLDPFYHKLSELLRESGA (library tags and phage coat protein not included) [B6L-3-G5-IR]
UNIT_STRING: fold over background
ratio over background (IGF-1R): 2
--
BINDER: MNVFVSFYDAIDQLVCQRIGC (library tags and phage coat protein not included) [20E2A-4-G11-IGFR]
UNIT_STRING: fold over background
ratio over background (IGF-1R): 3.3
--
BINDER: LSCLAYSRHGIWRPSTDLGLGRSVGEGSVSTRWRGYDWFE (tags and coat protein not included; Formula 10 (Group 6) clone) [40F-4-D1-IGFR]
UNIT_STRING: fold over background
ratio over background (IGF-1R): 4.6
--
BINDER: CSMAAVAEAGDDDDPFYHKLSELCQGS (library tags and phage coat protein not included) [B6Hα-3-F1-IR]
UNIT_STRING: fold over background
ratio over background (IGF-1R): 2.4
--
BINDER: GCITAENGAGDPFYHKLSELGGCS (library tags and phage coat protein not included) [B6Hα-1-B3-IR]
UNIT_STRING: fold over background
ratio over background (IGF-1R): 3.2
--
BINDER: SRVAATKEKRPSDDPFYHKLSELLQGS (library tags and phage coat protein not included) [B6Hα-3-F7-IR]
UNIT_STRING: fold over background
ratio over background (IGF-1R): 3.1
